# Tested on: Mycobacterium tuberculosis
# experiment.notes: Antimycobacterial activity against Mycobacterium tuberculosis H37Rv at MIC concentration after up to 28 days
# Type: functional
Recorded inhibition (INH) by entry
property.label: inhibition (INH) (%)

>>> val("Cc1ccc(-c2nnc(-c3cccnc3)n2Nc2nc3ccc(F)cc3s2)cc1")
98
>>> val("NNc1nc2c(Cl)cccc2s1")
99
>>> val("Cc1cccc2sc(NN)nc12")
98
>>> val("Cc1ccc(-c2nnc(-c3cccnc3)n2Nc2nc3cc(Cl)c(Cl)cc3s2)cc1")
99
>>> val("COc1ccc2nc(NN)sc2c1")
99
>>> val("Cc1ccc(-c2nnc(-c3cccnc3)n2Nc2nc3ccc(Cl)cc3s2)cc1")
99
>>> val("Cc1ccc(-c2nnc(-c3cccnc3)n2Nc2nc3c(Cl)cccc3s2)cc1")
99
>>> val("Cc1ccc(-c2nnc(-c3cccnc3)n2Nc2nc3c(C)cccc3s2)cc1")
98
>>> val("Cc1ccc(-c2nnc(-c3cccnc3)n2Nc2nc3ccc(C)cc3s2)cc1")
99
>>> val("Cc1ccc(-c2nnc(-c3cccnc3)n2Nc2nc3c([N+](=O)[O-])cccc3s2)cc1")
99
>>> val("COc1ccc2nc(Nn3c(-c4ccc(C)cc4)nnc3-c3cccnc3)sc2c1")
99
